biological target: Mu-type opioid receptor (Bos taurus); experiment: Displacement of [3H]DAMGO from calf thalamus membrane MOP by competitive binding assay; assay type: cell membranes
Sequence (P79350 whole entry): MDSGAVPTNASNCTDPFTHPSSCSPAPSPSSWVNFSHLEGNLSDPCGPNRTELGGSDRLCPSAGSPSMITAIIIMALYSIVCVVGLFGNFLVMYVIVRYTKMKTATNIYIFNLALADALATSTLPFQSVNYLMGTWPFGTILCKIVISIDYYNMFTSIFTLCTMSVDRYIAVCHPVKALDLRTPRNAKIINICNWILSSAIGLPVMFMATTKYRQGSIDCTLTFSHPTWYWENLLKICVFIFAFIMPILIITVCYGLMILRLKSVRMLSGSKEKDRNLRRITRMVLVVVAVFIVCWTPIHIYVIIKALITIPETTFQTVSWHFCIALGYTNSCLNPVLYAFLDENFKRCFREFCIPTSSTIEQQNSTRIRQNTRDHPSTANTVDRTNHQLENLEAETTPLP
Square brackets hold non-standard residues; d marks the D form. Peptide text beside a SMILES is read from it. Sar = CNCC(=O)O
Recorded metric: Ki (nM)
Numbers only, in nM.

CN(CC(=O)O)C(=O)[C@H](Cc1ccccc1)NC(=O)[C@@H](CCCN=C(N)N)NC(=O)[C@@H](N)Cc1ccc(O)cc1 (H-Y[dR]F[Sar]-OH) :: 0.5

Query molecule follows.
Problem: // lookup Ki | system=Mu-type opioid receptor (Bos taurus) | key= `Cc1cc(O)cc(C)c1C[C@H](N)C(=O)N[C@H](CCCNC(=N)N)C(=O)N[C@@H](Cc1ccccc1)C(=O)N[C@@H](CCCCN)C(N)=O`
Result: 0.14
